- MEASURED TARGET: Cytochrome P450 1A2 (Homo sapiens) (UniProt P05177)
- Sequence (P05177 whole entry, looked up): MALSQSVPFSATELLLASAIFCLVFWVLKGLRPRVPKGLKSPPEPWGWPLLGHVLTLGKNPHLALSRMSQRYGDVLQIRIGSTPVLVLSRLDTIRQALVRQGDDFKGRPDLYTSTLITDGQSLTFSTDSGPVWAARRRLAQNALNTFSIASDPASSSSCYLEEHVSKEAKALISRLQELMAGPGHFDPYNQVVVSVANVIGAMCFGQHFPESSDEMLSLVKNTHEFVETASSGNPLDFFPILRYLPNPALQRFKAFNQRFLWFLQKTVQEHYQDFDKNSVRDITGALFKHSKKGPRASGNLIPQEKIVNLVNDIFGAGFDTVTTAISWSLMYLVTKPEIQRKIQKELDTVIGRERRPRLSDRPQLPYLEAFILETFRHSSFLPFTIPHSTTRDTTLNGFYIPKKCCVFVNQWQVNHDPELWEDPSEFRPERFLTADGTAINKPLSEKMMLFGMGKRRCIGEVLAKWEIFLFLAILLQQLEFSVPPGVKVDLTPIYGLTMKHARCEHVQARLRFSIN
- MEASUREMENT DESCRIPTION: Cytochrome panel assay with activity outcomes
- APPLIED CONDITIONS: recombinant CYP, pro-luciferin dealkylation, luminescence, p450-cyp1a2; series mostly up to 57.1 µM
- Protocol: The P450 gene superfamily is involved in the metabolism and clearance of xenobiotics. This assay used various human CYP P450 isozymes to measure the dealkylation of various pro-luciferin substrates to luciferin. The luciferin is then measured by luminescence after the addition of a luciferase detection reagent. […] Inhibitors and some substrates limit the production of luciferin, and decrease measured luminescence. […] 8, Detection, 1 sec, ViewLux luminescent read […]
The campaign covered roughly 16,000 compounds. About 5,700 (36%) were called active. Roughly 24% stayed inconclusive and do not appear here. Some of the results follow.
REPORTED PROPERTY: AC50

Worked cases, AC50 given:
| COMPOUND | AC50 |
| --- | --- |
| C=CCOC(=O)C1=C(C)NC(SCC(=O)OCC)=C(C#N)C1c1ccc(C)cc1 (centres undefined) | 12.6 µM (active) |
| CCCC1(C(=O)OC)C=C2C(=C(C(C)C)C(=O)C2C)CN1 (centres undefined) | inactive |
| Cn1c(=O)c(-c2cccs2)nc2cnc(N3CCNCC3)nc21 | 10 µM (active) |
| CN(C)C(=O)c1ccc(-c2nccc(-n3ccnc3)n2)cc1 | 15.8 µM (active) |
| COc1ccc(NC(=O)N2CC3(CCN(C(=O)c4cccn4C)CC3)C2)cc1 | inactive |
| COc1cccc(NC(=O)CSc2nc3c(c(-c4ccco4)c2C#N)CCCC3)c1 | inactive |
| CCN1C(=O)CC(N2CCN(CC(=O)NC(C)C)CC2)C1=O (centres undefined) | inactive |
| Cc1ccccc1C(=O)NN(C)c1nc2ccccc2nc1C(F)(F)F | inactive |
| CCCSC1=C(C#N)C(c2cccnc2)C(C(=O)OCC)=C(c2ccccc2)N1 (centres undefined) | inactive |
| CCCC1(C(=O)OC)C=C2C(=C(C)C(=O)C2C)CN1 (centres undefined) | inactive |

Incoming: Report AC50 for "Cc1ccc(/C=N/n2c(COc3ccccc3)n[nH]c2=S)s1" please.
Outgoing: 0.501 µM (active)

Incoming: Report AC50 for COC(=O)C1=C(C)NC(=O)NC1c1ccsc1 (centres undefined) please.
Outgoing: inactive

----------
- MEASURED TARGET: Cytochrome P450 1A2 (Homo sapiens) (UniProt P05177)
- MEASUREMENT DESCRIPTION: Cytochrome panel assay with activity outcomes
- APPLIED CONDITIONS: recombinant CYP, pro-luciferin dealkylation, luminescence, p450-cyp1a2; series mostly up to 57.1 µM
Screen size: about 16,000 compounds; about 5,700 (36%) were called active. About 24% were inconclusive and are not listed. The call rests on the fitted dose curve; in most records, active means well fitted curve in the direction sought with a large enough effect; inconclusive means small, poorly fitted or top-dose-only effect, or effect the other way; inactive means no such curve, though single readings can be large or run the other way. The list shows a part of the results.
Respond using exactly one of the listed classes: y for active, n for inactive

// known answers, use as guide
| MOLECULE | CLASS LABEL |
| --- | --- |
| COC(=O)C(CCSC)NC(=O)c1cccc([N+](=O)[O-])c1 (stereo unspecified) | n |
| C[n+]1cccc(CNC(=O)/C=N/O)c1 | n |
| COc1ccc(C(=O)N2CCC3(CCCN(Cc4ccccc4OC)C3)CC2)cc1 | n |

Incoming: For "C[C@@H]1[C@H]2CC[C@@H]3[C@@H]4CC=C5C[C@@H](N(C)C)CC[C@]5(C)[C@@H]4CC[C@@]32CN1C" , which call appears in the assay record?
Outgoing: n

Incoming: For "CCn1c2ccccc2c2cc(/C=N/n3cn[nH]c3=S)ccc21" , which call appears in the assay record?
Outgoing: y

Incoming: For "c1csc(CNc2ncncc2-c2ccc3c(c2)OCO3)c1" , which call appears in the assay record?
Outgoing: y
